Numbers sourced from patent US8178506B2.

# % cells in cell cycle phase S per record follows
Test system: BJ cells
assay notes: Cell cycle assay in BJ cells
Assay type: cell-based, human
settings: 200 nM, 48 hours, relative to untreated control
In the oligonucleotide strings, read from the 5' end, every base follows the letter of its sugar. An asterisk marks phosphorothioate; unmarked linkages are phosphodiester. Other units and linkages are bracketed, terminal groups are in braces. A string of capitals states the bases alone. e = 2'-O-(2-methoxyethyl) (MOE); [5mC] = 5-methylcytosine; d = 2'-deoxy (DNA)
Give a bare numeral; the unit % is implied.

Solved cases (2 shown):
# substance, observed measurement
measured = [
    ("327905 (antisense e[5mC]*eA*eG*eA*e[5mC]*eT*e[5mC]*e[5mC]*eG*eG*eT*eG*eG*eA*eA*eT*eG*eA*eA*eG*eG*eA) [compound 327905]", 77),
    ("328403 (antisense eA*eG*eG*e[5mC]*e[5mC]*dT*dA*dT*dT*d[5mC]*d[5mC]*dT*dG*dT*dA*eG*e[5mC]*eA*eA*eA) [compound 328403]", 95),
]

Please examine the following record next.
query: # assay system BJ cells: give % cells in cell cycle phase S of 327902 (antisense eG*eG*e[5mC]*eT*eG*eT*e[5mC]*eA*eA*eT*eT*e[5mC]*eA*eT*eA*eG*eG*eT*e[5mC]*eA*eG) [compound 327902]
result: 88

----------
System: IL-12 mRNA
assay notes: IL-12 mRNA in LPS-activated primary murine macrophages
Type: cell-based, mouse
settings: 150 nM, −IFN, LPS; average of 3 treatments
In the oligonucleotide strings, read from the 5' end, every base follows the letter of its sugar. An asterisk marks phosphorothioate; unmarked linkages are phosphodiester. Other units and linkages are bracketed, terminal groups are in braces. A string of capitals states the bases alone. e = 2'-O-(2-methoxyethyl) (MOE); [5mC] = 5-methylcytosine; d = 2'-deoxy (DNA)
# IL-12 mRNA expression, % UTC per record follows
Give a bare numeral; the unit % UTC is implied.

Solved cases (2 shown):
# substance, IL-12 mRNA expression, % UTC, % UTC
rows = [
    ("327941 (antisense eA*eA*e[5mC]*e[5mC]*e[5mC]*eA*e[5mC]*e[5mC]*eG*eA*e[5mC]*eA*eG*e[5mC]*eA*eA*eT*eG*eA*eA*eT*eG*eT*eT) [compound 327941]", 45),
    ("129690 (antisense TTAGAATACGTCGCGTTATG; sugars from the 5' end e5 d10 e5, all phosphorothioate, methylation of C not given here) [compound 129690]", 109),
]

Please examine the following record next.
query: # assay system IL-12 mRNA: give IL-12 mRNA expression, % UTC of 327921 (antisense e[5mC]*eT*eT*e[5mC]*e[5mC]*eA*eG*eT*e[5mC]*eG*eG*eG*eG*eA*eT*eG*eT*eT*eT*eA*e[5mC]*eA) [compound 327921]
result: 88

----------
Test system: BJ, B16-F10, T47D, T47Dp53 and HeLa cells
assay notes: Cell cycle assay (propidium iodide flow cytometry), cell line panel
Type: cell-based
settings: 150 nM oligomeric compound, 4.5 μg/ml LIPOFECTIN, after 72 hours, propidium iodide flow cytometry
In the oligonucleotide strings, read from the 5' end, every base follows the letter of its sugar. An asterisk marks phosphorothioate; unmarked linkages are phosphodiester. Other units and linkages are bracketed, terminal groups are in braces. A string of capitals states the bases alone. e = 2'-O-(2-methoxyethyl) (MOE); [5mC] = 5-methylcytosine; d = 2'-deoxy (DNA)
Label Met when S (percentage of cells in phase of the cell cycle) is at or above 30%; anything below gets Not met.

# substance, label
measured = [
    ("327907 (antisense eA*eG*e[5mC]*e[5mC]*eT*eA*eT*e[5mC]*e[5mC]*eT*eG*eG*eA*eT*eT*eA*e[5mC]*eT*eT*eG*eA*eA) [compound 327907]", "Met"),
    ("NNNNNNNNNNNNNNNNNNNN [ISIS 29848, reference compound]", "Not met"),
    ("328382 (e[5mC]*eA*eG*eA*e[5mC]*dT*d[5mC]*d[5mC]*d[5mC]*dA*dA*d[5mC]*dT*dG*dA*e[5mC]*e[5mC]*eA*eG*eA) [compound 328382]", "Not met"),
    ("328362 (eT*eG*eT*eG*eT*dT*dT*dT*d[5mC]*dT*dG*dA*d[5mC]*dT*d[5mC]*eA*eG*eT*e[5mC]*eA) [compound 328362]", "Met"),
    ("328424 (antisense eA*eG*eG*eA*eA*dG*d[5mC]*dA*d[5mC]*dA*d[5mC]*dA*dT*dT*dA*eT*e[5mC]*eA*e[5mC]*eA) [compound 328424]", "Not met"),
    ("327902 (antisense eG*eG*e[5mC]*eT*eG*eT*e[5mC]*eA*eA*eT*eT*e[5mC]*eA*eT*eA*eG*eG*eT*e[5mC]*eA*eG) [compound 327902]", "Met"),
    ("328691 (e[5mC]*e[5mC]*e[5mC]*e[5mC]*eA*dT*d[5mC]*dT*dT*dA*dG*d[5mC]*dA*dT*d[5mC]*eT*eA*eA*eG*eG) [compound 328691]", "Not met"),
    ("328773 (antisense eT*eA*e[5mC]*eT*eT*dT*dA*d[5mC]*dT*d[5mC]*d[5mC]*dA*dA*dG*dG*eT*eT*eT*eT*eA) [compound 328773]", "Not met"),
]

query: Quick check: does 328644 (eG*eA*e[5mC]*eA*eA*dG*dG*dT*dG*dG*dG*dA*dG*d[5mC]*dG*eA*eG*eT*eG*eG; antisense) [compound 328644] have S (percentage of cells in phase of the cell cycle) greater than or equal to 30%?
result: Not met

query: Quick check: does 328697 (eG*e[5mC]*eT*eT*eG*dT*d[5mC]*d[5mC]*dA*d[5mC]*dA*d[5mC]*dA*dG*dT*eT*e[5mC]*eA*eA*e[5mC]; antisense) [compound 328697] have S (percentage of cells in phase of the cell cycle) greater than or equal to 30%?
result: Not met

----------
System: PEPCK-c
assay notes: PEPCK-c mRNA expression in HepG2 cells
Assay type: cell-based, human
settings: Experiment 1, basal (no insulin); HepG2; 100 nM oligomeric compound
In the oligonucleotide strings, read from the 5' end, every base follows the letter of its sugar. An asterisk marks phosphorothioate; unmarked linkages are phosphodiester. Other units and linkages are bracketed, terminal groups are in braces. A string of capitals states the bases alone. e = 2'-O-(2-methoxyethyl) (MOE); [5mC] = 5-methylcytosine; d = 2'-deoxy (DNA)
measure: PEPCK-c (% UTC)
Give a bare numeral; the unit % UTC is implied.

# substance, system under test, PEPCK-c (% UTC)
records = [
    ("327890 (antisense eA*eG*e[5mC]*eA*e[5mC]*eA*eA*eA*e[5mC]*eT*eA*e[5mC]*eT*eA*e[5mC]*e[5mC]*eT*e[5mC]*eA) [compound 327890]", "PEPCK-c", 85),
    ("327901 (antisense eT*eG*eA*eG*e[5mC]*eT*eA*e[5mC]*eA*eG*eT*eG*e[5mC]*eT*eT*e[5mC]*eA*eT*e[5mC]*eT*e[5mC]*eA) [compound 327901]", "PEPCK-c", 119),
    ("340927 (antisense eT*eG*eA*eG*e[5mC]*dT*dA*d[5mC]*dA*dG*dT*dG*d[5mC]*dT*dT*e[5mC]*eA*eT*e[5mC]*eT*e[5mC]*eA) [compound 340927]", "PEPCK-c", 87),
    ("327903 (antisense eA*eA*e[5mC]*eT*eA*eT*eA*e[5mC]*eA*eA*e[5mC]*e[5mC]*eT*eA*e[5mC]*eT*eA*e[5mC]*e[5mC]*eT*e[5mC]*eA) [compound 327903]", "PEPCK-c", 71),
]

Please examine the following record next.
query: # assay system PEPCK-c: give PEPCK-c (% UTC) of 327934 (antisense eG*eG*eT*eA*e[5mC]*eA*eA*eT*e[5mC]*eA*eA*e[5mC]*eG*eG*eT*e[5mC]*eG*eA*eT*eG*eG*eT) [compound 327934]
result: 99

----------
# IGFBP-1 (% UTC) per record follows
Test system: IGFBP-1
assay notes: IGFBP-1 mRNA expression in HepG2 cells
Assay type: cell-based, human
settings: Experiment 4, insulin-sensitization: HepG2 cells treated with 1 nM insulin for four hours, 48 h post-transfection; mRNA by real-time PCR
Protocol: Approximately 28 hours after transfection, the cells are subjected to serum starvation for a period of 12 to 16 hours, using serum-free growth medium. […] Following insulin treatment (forty-eight hours after transfection), total RNA is harvested from all samples, and the amount of total RNA from each sample is determined using a Ribogreen assay (Invitrogen Corporation, Carlsbad, Calif.). […]
In the oligonucleotide strings, read from the 5' end, every base follows the letter of its sugar. An asterisk marks phosphorothioate; unmarked linkages are phosphodiester. Other units and linkages are bracketed, terminal groups are in braces. A string of capitals states the bases alone. e = 2'-O-(2-methoxyethyl) (MOE); [5mC] = 5-methylcytosine; d = 2'-deoxy (DNA)
Give a bare numeral; the unit % UTC is implied.

# substance, IGFBP-1 (% UTC)
measured = [
    ("328779 (antisense eT*eG*eT*eT*eT*dG*dT*d[5mC]*dT*d[5mC]*d[5mC]*dA*dA*dG*dA*eA*eA*e[5mC]*eG*eT) [compound 328779]", 128),
    ("340362 (antisense GACTGTTGAATCTCATGGCA; 5-10-5 gapmer, wing sugar and linkages not given here, further chemistry not given here) [compound 340362]", 129),
]

query: # assay system IGFBP-1: give IGFBP-1 (% UTC) of 328761 (antisense eG*e[5mC]*eA*eG*eG*d[5mC]*dT*dA*dA*dA*dA*dG*dA*dA*dA*eT*eA*eA*eG*e[5mC]) [compound 328761]
result: 93

query: # assay system IGFBP-1: give IGFBP-1 (% UTC) of 328773 (antisense eT*eA*e[5mC]*eT*eT*dT*dA*d[5mC]*dT*d[5mC]*d[5mC]*dA*dA*dG*dG*eT*eT*eT*eT*eA) [compound 328773]
result: 136

query: # assay system IGFBP-1: give IGFBP-1 (% UTC) of 328765 (antisense eG*eA*e[5mC]*eA*eA*dA*d[5mC]*dT*d[5mC]*dA*dG*d[5mC]*dT*dA*dT*eA*eT*eT*eG*eT) [compound 328765]
result: 94
